Test system: SN12C renal
Assay: NCI tumour cell line growth inhibition, 48 h; in the data active means GI50 below about 0.43 µM; inactive means the rest
Return exactly one item of class 1 (active), class 0 (inactive)

Here are 10 molecules together with their reported answers.
{"columns": ["MOLECULE", "TGT", "CLASSIFICATION"],
 "data": [
  ["Cc1cc(Nc2cc(N3CCN(C)CC3)nc(/C=C/c3ccccc3)n2)n[nH]1", "SN12C renal", "class 0"],
  ["Nc1nc(/C=C\\c2ccccc2)nc(N2CCN(c3ccccc3)CC2)n1", "SN12C renal", "class 0"],
  ["CC(=O)[C@H]1CCC2[C@@H]3CC=C4C[C@@H]([O-])CC[C@]4(C)C3CC[C@@]21C.CC(=O)[C@H]1CCC2[C@@H]3CC=C4C[C@@H]([O-])CC[C@]4(C)C3CC[C@@]21C.CC(=O)[CH-]C(=O)c1ccccc1.CC(=O)[CH-]C(=O)c1ccccc1.Cl.[Ti+4] (some centres not stated)", "SN12C renal", "class 0"],
  ["COc1cccc(Nc2nc3ccccc3c3occc23)c1", "SN12C renal", "class 0"],
  ["N/N=C(/Cc1nc2ccc(C(=O)c3ccccc3)cc2[nH]c1=O)C(=O)Nc1ccc([N+](=O)[O-])cc1[N+](=O)[O-]", "SN12C renal", "class 0"],
  ["CCCCCCCCCCCCOC1C(CNC(=O)C2OC3OC(C)(C)OC3C2NC(=O)CN2CCN(c3ccc(OC)cc3)CC2)OC2OC(C)(C)OC21 (configuration not stated)", "SN12C renal", "class 0"],
  ["CN1CCN(Cc2ccc(NC(=O)c3cncc(C#Cc4cnc(N)c5cccnc45)c3)cc2C(F)(F)F)CC1", "SN12C renal", "class 1"],
  ["CC(=O)C1=C(O)C=C2Oc3c(C(=O)/C=C/c4cc(Cl)cc(Cl)c4)c(O)c(C)c(O)c3[C@]2(C)C1=O", "SN12C renal", "class 0"],
  ["Clc1ccccc1-c1nnc2c(Cc3ccccc3)nc3ccccc3n12", "SN12C renal", "class 0"],
  ["N#Cc1cnc(Nc2cc(NC[C@H]3CNCCO3)c(C(F)(F)F)cn2)cn1", "SN12C renal", "class 0"]
]}

## Task // param item: CCN(Cc1cccc(Cl)c1)c1ccc(CO)c(Cl)c1 ; yields the recorded call
## Result class 0

## Task Which result was noted for this molecule in the test: O=C1c2ccccc2-c2c1c1ccccc1c(=O)n2CCCNCCn1c2c(c3ccccc3c1=O)C(=O)c1ccccc1-2
## Result class 0

----------
Tested on: SK-MEL-2 melanoma
Assay: NCI tumour cell line growth inhibition, 48 h
# maps each entry to its TGI
Reply with just the number (in µM).

{"columns": ["COMPOUND", "TGT", "RESULT_UNITS", "TGI"],
 "data": [
  ["O=C1CCc2ccc(O)c(c2)Oc2ccc(cc2)C(Sc2ccccc2)CCO1 (centres undefined)", "SK-MEL-2 melanoma", "µM", 37.3]
]}

## Task Which TGI reading was recorded for the compound C/C(=C(\c1ccc(OCCN2CCCCCC2)cc1)c1ccc(OC(=O)c2ccccc2)cc1)c1ccc(Cl)cc1 ?
## Result 10.5

## Task Reported TGI for Cc1cc(C)c(-c2noc(-c3ccc(Cl)cc3)c2C2=NCCCN2)c(C)c1 : what is it?
## Result 49.9

## Task # query: TGI of entry COc1ccccc1C(O)[C@@H]1C[C@@H]2[C@H]3CC[C@@](C)([C@@H]2O1)C3(C)C (some centres undefined)
## Result 34.3

## Task What value of TGI has been recorded for this entry: CCOC(=O)c1nc2ccc(C(F)(F)F)cc2nc1NCc1ccc(OC)c(OC)c1
## Result 86.1

----------
Tested on: U251 CNS
Test: NCI tumour cell line growth inhibition, 48 h
ASSAY_ENDPOINT: TGI

{"columns": ["COMPOUND", "TGI"],
 "data": [
  ["COc1cccc(/C=C2\\S/C(=N/Nc3nc(C)c(C)s3)NC2=O)c1O", "> 100 µM"],
  ["O=C1c2ccccc2C2CCC1c1ccccc12 (stereo not drawn)", "> 100 µM"],
  ["COc1ccccc1/C=C/C1=NN(c2cccc(S(=O)(=O)O)c2)C2(C1)C(Cl)C(=O)N2c1nc2ccccc2s1 (stereo not drawn)", "> 100 µM"],
  ["COc1ccc(N=NC(=O)NC(CC(C)C)C(=O)NCC(=O)O)cc1 (stereo not drawn)", "> 100 µM"],
  ["Cc1cn(Cc2ccc(C34CC5CC(CC(C5)C3)C4)c(O)c2)c(=O)[nH]c1=O", "24.8 µM"],
  ["O=[S@]1c2ccc3ccccc3c2N[C@@H]2[C@H]1[C@H]1C=C[C@@H]2C1", "> 100 µM"]
]}

## Task Which TGI value is on record for CN(C)c1c(C2OC(CO)C(O)C2O)c(=O)c1=O (stereo not drawn) ?
## Result > 100 µM

## Task Entry under review: CN(C)N1C(=O)S/C(=C\c2ccc([N+](=O)[O-])cc2)C1=O . Reported TGI?
## Result > 100 µM

## Task Which measured TGI value corresponds to O=C(/C=C/c1cccc([N+](=O)[O-])c1)c1ccc([N+](=O)[O-])cc1 ?
## Result > 100 µM

## Task # TGI lookup, item CCN(CC)CCCC(C)N/C(=C1\C(=O)NC(=O)\C1=C(/NC(C)CCCN(CC)CC)c1cccc(OC)c1)c1cccc(OC)c1 (stereo not drawn)
## Result 1.89 µM

## Task Any idea what its TGI is? The compound is O=C(c1ccc(Cl)cc1)c1ccc(OCCCOc2ccc(C(=O)c3ccc(Cl)cc3)cc2Cl)c(Cl)c1
## Result > 100 µM

## Task Which TGI value belongs to O=C(CSCC(=O)N/N=C\c1cccc([N+](=O)[O-])c1)N/N=C\c1cccc([N+](=O)[O-])c1 ?
## Result 32.4 µM

## Task Could you share which TGI value was measured for S=c1ncc2c([nH]1)C1c3ccccc3C2c2ccccc21 ?
## Result > 100 µM

----------
Test system: HT29 colon
Experiment: NCI tumour cell line growth inhibition, 48 h
1.0 means recorded TGI is 40 µM or above; 0.0 means it is below 40 µM.

Solved entries:
{"columns": ["COMPOUND", "CLASSIFICATION"],
 "data": [
  ["COc1c(C(=O)NCCN(CCNC(=O)c2cccc(-c3cccc(C(=O)N(C)C)c3OC)c2OC)CCNC(=O)c2cccc(-c3cccc(C(=O)N(C)C)c3OC)c2OC)cccc1-c1cccc(C(=O)N(C)C)c1OC", 1.0],
  ["COC(=O)[C@@H]1Cc2c([nH]c3ccccc23)[C@H](c2ccccc2)N1", 1.0],
  ["COc1ccc(/C=C2/SC(Nc3nc(-c4nc(NC5=NC(=O)/C(=C\\c6ccc(OC)cc6)S5)sc4C)c(C)s3)=NC2=O)cc1", 1.0]
]}

## Task Tell me whether TGI is at least 40 µM here: CC1(C)CCCC(C)(C2CCC3(C)C2C(O)CC2C4(C)CCC(O)C(C)(C)C4CCC23C)O1 (stereo not given)
## Result 1.0

## Task Is TGI for CC(=O)[CH-]C(=O)c1ccccc1.CC(=O)[CH-]C(=O)c1ccccc1.CC(=O)[CH-]C(=O)c1ccccc1.[Nd+3].[OH3+] at or above 40 µM?
## Result 1.0

## Task Does the compound CCOC(=O)C(C#N)C1=CC(=O)C(=O)c2ccc(O)cc21 (stereo not given) have recorded TGI that is 40 µM or more?
## Result 1.0

----------
Tested on: COLO 205 colon
Experiment: NCI tumour cell line growth inhibition, 48 h
ASSAY_ENDPOINT: TGI (µM)
The reply should be a number in µM, with the unit left off.

Here are 6 compounds together with their reported answers.
{"columns": ["COMPOUND", "TGT", "TGI (µM)"],
 "data": [
  ["CCOc1ccn(-c2ccc(F)cc2)c(=O)c1C(=O)Nc1ccc(Oc2ccnc(N)c2Cl)c(F)c1", "COLO 205 colon", 5.57],
  ["CCN(CC)CCCC(C)N/C(=C1\\C(=O)NC(=O)\\C1=C(/NC(C)CCCN(CC)CC)c1cccc(OC)c1)c1cccc(OC)c1 (stereo unspecified)", "COLO 205 colon", 1.65],
  ["O=c1c(Cl)c(Cl)cnn1CCCl", "COLO 205 colon", 7.69],
  ["Oc1c(Cl)cc(Cl)c2ccc(Cn3cc(-c4ccc(C(F)(F)F)cc4)nn3)nc12", "COLO 205 colon", 3.14],
  ["CN1CCN(Cc2ccc(NC(=O)c3cncc(C#Cc4cnc(N)c5cccnc45)c3)cc2C(F)(F)F)CC1", "COLO 205 colon", 1.12],
  ["O=C(c1ccccc1)N1CCC(CC2(c3cc4ccccc4[nH]3)OCCO2)CC1", "COLO 205 colon", 40.1]
]}

## Task If you can, please state the reported TGI value of CC(=O)[C@H]1CCC/C=C/[C@@H]2C[C@H](O)C[C@H]2[C@H](O)/C=C/C(=O)O1 .
## Result 0.631
